Exercise: for every item that follows, state its recorded inhibition.
Tested on: hERG (Potassium voltage-gated channel subfamily H member 2, Homo sapiens)
Assay: Displacement of [35S]MK-0499 from human hERG potassium channel at 1 uM
Answers are plain numbers, in %.

{"CPD_SMILES": "CC(C)(C)OC(=O)N[C@H](Cc1ccccc1F)C(=O)N[C@@H]1CN(CC2CC2)c2ccccc2N(CC(F)(F)F)C1=O", "inhibition / %": 7}
{"CPD_SMILES": "CN1C(=O)[C@H](NC(=O)[C@@H](Cc2ccccc2F)NC(=O)OC(C)(C)C)CNc2ccccc21", "inhibition / %": 0}
{"CPD_SMILES": "CN1C(=O)[C@H](NC(=O)[C@@H](Cc2ccccc2F)NC(=O)OC(C)(C)C)CN(Cc2ccccc2)c2ccccc21", "inhibition / %": 14}

# lookup: inhibition of CN1C(=O)[C@H](NC(=O)[C@@H](Cc2ccccc2F)NC(=O)OC(C)(C)C)CN(CC2CCC2)c2ccccc21 20
